assay_explanation: qHTS assay to test for compound auto fluorescence at 535 nm (green) in HEK293 cells (AID 720680); further: on the % scale 0 is the no-effect control and ±100 the full control effect
experimental_context: green autofluorescence 485/535 nm; series mostly up to 91.3 µM
Calls of active or inactive are those of the source. The call rests on the fitted dose curve; in most records, active means well fitted curve in the direction sought with a large enough effect in the repeat runs; inconclusive means weak or mixed curves; inactive means flat fitted curve, though single readings scatter.
experimental_endpoint: fluorescence, % of fluorescein

Record excerpt, results attached:
1. C=Cc1cccc(C)c1
inactive
2. Clc1ccnc(Cl)n1
inactive
3. C=C(C)c1cccc(C(=C)C)c1
inactive
4. CCCC1CCC(=O)CC1
inactive
5. CC[C@H](C)COC(=O)/C=C/c1ccc(N=Cc2ccc(OC)cc2)cc1
inactive

Recorded fluorescence, % of fluorescein of "Cc1nc2n(c(=O)c1CCN1CCC(c3noc4cc(F)ccc34)CC1)CCCC2" , please.
inactive

Item: "O=C(c1ccc(O)c(O)c1)c1ccc(O)cc1O"
inactive

Item: "O=S(=O)(O)c1ccc(Nc2nc(Nc3ccc(/C=C/c4ccc(Nc5nc(Nc6ccc(S(=O)(=O)O)cc6)nc(N(CCO)CCO)n5)cc4S(=O)(=O)O)c(S(=O)(=O)O)c3)nc(N(CCO)CCO)n2)cc1"
inactive

====

assay_explanation: qHTS assay to identify small molecule agonists of the estrogen receptor beta (ER-beta) signaling pathway - cell viability counter screen (AID 1259380); further: on the % scale 0 is the no-effect control and ±100 the full control effect; nearly all actives have a fitted effect of over 30% in size
experimental_context: ER-beta-bla HEK293T viability, CellTiter-Glo luminescence, 16 h; series mostly up to 92.4 µM
Source text: National Center for Advancing Translational Sciences [NCATS] NIH Chemical Genomics Center [NCGC] U.S. Environmental Protection Agency [EPA] National Institutes of Environmental Health Sciences [NIEHS] National Toxicology Program [NTP] U.S. Food and Drug Administration [FDA] Estrogen receptor (ER), a nuclear hormone receptor, plays an important role in development, metabolic homeostasis and reproduction. […]
Records with an inconclusive call do not appear. Active and inactive are the calls of the source. Calls come from the whole dose curve; as a rule, active = well fitted cell-killing curve with a large enough effect in the repeat runs; inconclusive = weak or mixed curves, or effect the other way; inactive = flat fitted curve, though single readings scatter.
Pick one: t for active, f for inactive

Example entries and their recorded answers appear below.
1. OCC(F)(F)F
f
2. O=C1C(c2[nH]c3ccc(S(=O)(=O)O)cc3c2O)=Nc2ccc(S(=O)(=O)O)cc21
f
3. CCCCOC(=O)CC
f
4. Sc1nc2ccccc2s1
f

Could you please tell me the result logged for CCOC(=O)NNc1ccc(N(CC)CC(C)O)nn1 (centres undefined) in this assay?
f

Item: "C=CCn1c(=O)n(CC=C)c(=O)n(CC=C)c1=O"
f

====

assay_explanation: qHTS assay to identify small molecule antagonists of the constitutive androstane receptor (CAR) signaling pathway - cell viability counter screen (AID 1224837); further: nearly all actives have a fitted effect of over 45% in size
experimental_context: HepG2-CYP2B6-hCAR viability, CellTiter-Fluor, 23 h, co-treated with 50 nM CITCO; series mostly up to 92.4 µM
Results filed as inconclusive are left out. Activity calls are given as the source filed them. Calls come from the whole dose curve; as a rule, active = well fitted cell-killing curve with a large enough effect in the repeat runs; inconclusive = weak or mixed curves, or effect the other way; inactive = flat fitted curve, though single readings scatter.
Pick one: 1.0 (active), 0.0 (inactive)

Could you please tell me the result logged for "CC(C)(C)NSc1nc2ccccc2s1" in this assay?
0.0

Item: "Sc1nc2ccccc2s1"
0.0

Item: "Cc1cc(-n2nc3ccc(Cl)cc3n2)c(O)c(C(C)(C)C)c1"
0.0

Item: "CCCCC/C=C\C/C=C\CCCCCCCC(=O)O"
0.0

Item: "O=C1NC(=O)[C@@H]2CC=CC[C@H]12"
0.0

Item: CCCCC(CC)CN1CN(CC(CC)CCCC)CC(C)(N)C1 (centres undefined)
0.0

Item: "CCN(CC)C(=O)c1cc(S(=O)(=O)Cc2ccccc2)c(N2CCC(c3ccccc3)CC2)cc1N(CC)CCN(C)C"
1.0

Item: OC1CCCc2ccccc21 (centres undefined)
0.0

Item: "C=Cc1ccccc1C=C"
0.0

Item: "OC/C=C/CO"
0.0

Item: "Cc1cccc2cccnc12"
0.0

Item: "COc1ccc(-c2coc3cc(O)ccc3c2=O)cc1"
0.0

Item: "CCCC(=O)OCCc1ccccc1"
0.0

Item: "CC[N+](CC)(CC)CCOc1ccc(/C=C/c2ccccc2)cc1"
0.0
